assay-notes: HepG2 cell viability effects, profiling panel, calcein-AM fluorescence, 48 h, basal (AID 1164); note: test concentration not given here
particulars: higher = more signal

compound	z-score
CC(C)(C)OC(=O)CC[C@]1(C(=O)NCc2ccccc2)N=C(c2ccc(OCCCO)cc2)O[C@H]1c1ccccc1CN=[N+]=[N-]	2.17
COC(=O)c1cn(C[C@@H](Cc2ccccc2)NC(=O)N[C@H](CO)CCc2oc(C(C)=O)c(C(=O)OC)c2C(=O)OC)nn1	-0.0248
C=C(C)[C@@H]1CC=C(C(O)C2C=CC3C(=O)N(c4ccccc4)C(=O)C3N2Nc2ccccc2F)CC1 (stereo partly drawn)	0.27
O=C1O[C@@H](c2ccccc2)[C@@H](c2ccccc2)N2[C@@H](c3ccc(O)cc3)[C@]3(C(=O)Nc4ccc(C#CC5=CCCCC5)cc43)[C@@H](C(=O)NC[C@H](O)c3ccccc3)[C@H]12	-1.86
COc1ccc([Si](C)(C)[C@@H]2[C@@H](CC(=O)N3Cc4ccccc4C[C@H]3CO)O[C@]3(C(=O)N(Cc4cccc(N5C(=O)c6cccc7cccc5c67)c4)c4ccccc43)[C@H]2C)cc1	-0.553
CCCC[C@@H]1C[C@H]1[C@@H](NC(=O)c1cccs1)c1ccc(C(F)(F)F)cc1	-0.655
CC(C)N1CC=CC23O[C@@H]4C=CCOC(=O)[C@@H]4[C@H]2C(=O)N(CCCO)[C@@H]3C1=O (stereo partly drawn)	-1.01
COCCOC(=O)N1C(=O)[C@@]2(c3cc(C#CCNC(N)=O)ccc31)[C@H](C(=O)N1CCc3cc(OC)c(OC)cc3C1)[C@H]1C(=O)O[C@H](c3ccccc3)[C@H](c3ccccc3)N1[C@@H]2c1ccccc1OCCO	0.479
CC(C)OC(=O)C=C1C[C@@H](c2ccc(C(F)(F)F)cc2)O[C@@H](c2ccc(C(F)(F)F)cc2)O1	0.114
CC(C)(C)N1CC=CC23O[C@@H]4C=CCCOC(=O)C4[C@H]2C(=O)N(CCO)[C@@H]3C1=O (stereo partly drawn)	-0.811
O=C1O[C@H](c2ccccc2)[C@H](c2ccccc2)N2[C@H]1[C@@H](C(=O)N1CCN(c3ncccn3)CC1)[C@]1(C(=O)Nc3ccc(C#CC4(O)CCCCCC4)cc31)[C@H]2c1ccc(OCCO)cc1	0.473
C=CCNC(=O)[C@H]1[C@@H]2C(=O)O[C@@H](c3ccccc3)[C@@H](c3ccccc3)N2[C@@H](c2ccc(O)cc2)[C@]12C(=O)N(C(=O)OCCOC)c1ccccc12	-0.513
COCCCNC(=O)[C@@]1(Cc2ccccc2N=[N+]=[N-])N=C(c2ccc(OCCCO)cc2)O[C@H]1c1ccccc1	-0.412
